tested on: CP335; assay: qHTS profiling for inhibitors of Plasmodium falciparum proliferation (AID 504749); further: nearly all actives have a fitted effect of over 60% in size; settings: P. falciparum in erythrocytes, SYBR Green DNA, 72 h; series mostly up to 28.7 µM
Results filed as inconclusive are left out. Active and inactive are the calls of the source. The call rests on the fitted dose curve; in most records, active means well fitted inhibition curve with a large enough effect; inconclusive means small, poorly fitted or top-dose-only effect; inactive means flat fitted curve, though single readings scatter.
Response enum: active, inactive

Observe how each entry below is paired with its result.
Problem: Per the assay record, what outcome was assigned to "CN1CCN(c2c(F)cc3c(=O)c(C(=O)O)cn4c3c2OCN4C)CC1" ?
Result: inactive

Problem: Which outcome was entered for the compound "N[C@@H](C(=O)N[C@@H]1C(=O)N2C(C(=O)O)=C(Cl)CS[C@H]12)c1ccccc1" in this test?
Result: inactive

Problem: # outcome recorded in this test, key = CCOc1cc(N)c(Cl)cc1C(=O)NCC1CN(Cc2ccc(F)cc2)CCO1 (configuration not stated)
Result: active

New cases:
Problem: Give the logged outcome of this assay for the following compound: CC(C)NCC(O)c1ccc(NS(C)(=O)=O)cc1 (configuration not stated)
Result: inactive

Problem: In this assay, the call recorded for "CC1=NN(c2ccccc2)C(=O)C1" was what?
Result: inactive

Problem: Give the logged outcome of this assay for the following compound: "COc1ccc2cc3[n+](cc2c1OC)CCc1cc2c(cc1-3)OCO2"
Result: active

Problem: Assay result, entry "CCCc1nc(C)c2c(=O)[nH]c(-c3cc(S(=O)(=O)N4CCN(CC)CC4)ccc3OCC)nn12" — outcome?
Result: inactive

Problem: Please share the test call associated with "CCCc1cc(C(N)=S)ccn1" .
Result: inactive

Problem: What outcome does the record of this test show for "COc1cc(NS(=O)(=O)c2ccc(N)cc2)nc(OC)n1" ?
Result: inactive
